Recorded values, source ChEMBL document CHEMBL1150393.

- System: Liver
- TEST_DETAILS: Biodistribution in liver of C57BL/6 mouse bearing mouse B16-F0 cells at 0.74 to 0.92 MBq, iv after 1 hr
- Type: ADME, organism-based
- DETAILS: in vivo
METRIC_NAME: Drug uptake (% ID/g)

| MOLECULE_SMILES | TESTED_TARGET | READOUT_NUMBER |
| --- | --- | --- |
| CCN(CC)CCNC(=O)c1cn2cc([125I])ccc2n1.Cl.Cl | Liver | 3.97 |

(a) CCN(CC)CCNC(=O)c1ccc2cc([125I])ccc2c1.Cl
(b) CCN(CC)CCNC(=O)c1cc2cc([125I])ccc2o1.Cl
(c) CCN(CC)CCNC(=O)c1ccc2cncc([125I])c2n1.Cl.Cl
Incoming: Please order the records by their reported Drug uptake, lowest number first. Quick reminder: the answer is the labels in the order asked.
Outgoing: c, b, a
(c: 3.92 % ID/g, b: 6.44 % ID/g, a: 9.46 % ID/g)

(I) CCN(CC)CCNC(=O)c1cc2cc([125I])ccc2[nH]1.Cl
(II) CCN(CC)CCNC(=O)c1cc2c([125I])cccc2cn1.Cl.Cl
Incoming: Sorting ascending by Drug uptake, which comes first: I or II ? Write down the label attached to your selection.
Outgoing: II

* * *

- TEST_DETAILS: Binding affinity to melanin in phosphate buffer solution
- Design: concentration or dose not given beside the values
- DETAILS: tested as the 125I-labelled form
METRIC_NAME: Activity (%)

Example cases with answers are listed next.
| MOLECULE_SMILES | Activity, % |
| --- | --- |
| CCN(CC)CCNC(=O)c1ccc2cc(I)ccc2c1 | 50.9 |
| CCN(CC)CCNC(=O)c1nc2cc(I)ccc2[nH]1 | 47.1 |
| CCN(CC)CCNC(=O)c1cnc2cc(I)ccc2n1 | 47.3 |
| CCN(CC)CCNC(=O)c1cc2c(I)cccc2cn1 | 45.2 |
| CCN(CC)CCNC(=O)c1ccc2cncc(I)c2n1 | 35.3 |

(I) CCN(CC)CCNC(=O)c1cc2cc(I)ccc2o1
(II) CCN(CC)CCNC(=O)c1cn2cc(I)ccc2n1
Incoming: For the two items I and II , which reports the higher Activity value? Write down the label attached to your selection.
Outgoing: I

* * *

- System: Liver
- TEST_DETAILS: Biodistribution in liver of C57BL/6 mouse bearing mouse B16-F0 cells at 0.74 to 0.92 MBq, iv after 6 hrs
- Type: ADME, organism-based
- DETAILS: in vivo
METRIC_NAME: Drug uptake (% ID/g)

| MOLECULE_SMILES | Drug uptake, % ID/g |
| --- | --- |
| CCN(CC)CCNC(=O)c1ccc2cc([125I])ccc2c1.Cl | 2.73 |
| CCN(CC)CCNC(=O)c1cc2cc([125I])ccc2o1.Cl | 1.77 |
| CCN(CC)CCNC(=O)c1cc2c([125I])cccc2cn1.Cl.Cl | 1.54 |
| CCN(CC)CCNC(=O)c1ccc([125I])nc1.Cl.Cl | 2.09 |

(A) CCN(CC)CCNC(=O)c1cnc2cc([125I])ccc2n1.Cl.Cl
(B) CCN(CC)CCNC(=O)c1ccc2cncc([125I])c2n1.Cl.Cl
(C) CCN(CC)CCNC(=O)c1nc2cc([125I])ccc2[nH]1.Cl.Cl
(D) CCN(CC)CCNC(=O)c1c[nH]c2ccc([125I])cc2c1=O.Cl.Cl
Incoming: Please order the records by their reported Drug uptake, lowest number first. Quick reminder: the answer is the labels in the order asked.
Outgoing: D, B, C, A
(D: 0.32 % ID/g, B: 1.49 % ID/g, C: 3.38 % ID/g, A: 7.53 % ID/g)

(a) CCN(CC)CCNC(=O)c1ccc2cc([125I])ccc2n1.Cl.Cl
(b) CCN(CC)CCNC(=O)c1cc2cc([125I])ccc2[nH]1.Cl
Incoming: For the two items a and b , which reports the higher Drug uptake value? Write down the label attached to your selection.
Outgoing: a
(a: 7.11 % ID/g, b: 3.63 % ID/g)

* * *

- Test system: Brain
- TEST_DETAILS: Biodistribution in brain of C57BL/6 mouse bearing mouse B16-F0 cells at 0.74 to 0.92 MBq, iv after 3 hrs
- Type: ADME, organism-based
- DETAILS: in vivo
METRIC_NAME: Drug uptake (% ID/g)

Example cases with answers are listed next.
| MOLECULE_SMILES | READING_UNIT | Drug uptake |
| --- | --- | --- |
| CCN(CC)CCNC(=O)c1ccc([125I])nc1.Cl.Cl | % ID/g | 0.22 |
| CCN(CC)CCNC(=O)c1ccc2cc([125I])ccc2c1.Cl | % ID/g | 0.78 |
| CCN(CC)CCNC(=O)c1ccc2cc([125I])ccc2n1.Cl.Cl | % ID/g | 0.83 |

(A) CCN(CC)CCNC(=O)c1cc2cc([125I])ccc2[nH]1.Cl
(B) CCN(CC)CCNC(=O)c1cnc2cc([125I])ccc2n1.Cl.Cl
(C) CCN(CC)CCNC(=O)c1cc2cc([125I])ccc2o1.Cl
(D) CCN(CC)CCNC(=O)c1cc2c([125I])cccc2cn1.Cl.Cl
Incoming: Please order the records by their reported Drug uptake, lowest number first. Quick reminder: the answer is the labels in the order asked.
Outgoing: D, C, B, A
(D: 0.09 % ID/g, C: 0.24 % ID/g, B: 1.03 % ID/g, A: 1.73 % ID/g)

* * *

- TEST_DETAILS: Biodistribution in uvea of C57BL/6 mouse bearing mouse B16-F0 cells at 0.74 to 0.92 MBq, iv after 6 hrs
- Type: ADME, organism-based, Uveal tract
- DETAILS: in vivo
METRIC_NAME: Drug uptake (% ID/g)

Example cases with answers are listed next.
| MOLECULE_SMILES | Drug uptake (% ID/g) |
| --- | --- |
| CCN(CC)CCNC(=O)c1ccc2cc([125I])ccc2c1.Cl | 12.76 |
| CCN(CC)CCNC(=O)c1cnc2cc([125I])ccc2n1.Cl.Cl | 32.3 |
| CCN(CC)CCNC(=O)c1cc2c([125I])cccc2s1.Cl | 16.29 |

(P) CCN(CC)CCNC(=O)c1cn2cc([125I])ccc2n1.Cl.Cl
(Q) CCN(CC)CCNC(=O)c1nc2cc([125I])ccc2[nH]1.Cl.Cl
Incoming: For the two items P and Q , which reports the higher Drug uptake value? Write down the label attached to your selection.
Outgoing: P
(P: 26.81 % ID/g, Q: 10.09 % ID/g)

(1) CCN(CC)CCNC(=O)c1ccc2cc([125I])ccc2n1.Cl.Cl
(2) CCN(CC)CCNC(=O)c1cc2cc([125I])ccc2o1.Cl
(3) CCN(CC)CCNC(=O)c1c[nH]c2ccc([125I])cc2c1=O.Cl.Cl
Incoming: Ordering criterion: Drug uptake; begin with the maximum. Quick reminder: the answer is the labels in the order asked.
Outgoing: 1, 2, 3
(1: 36.62 % ID/g, 2: 13.91 % ID/g, 3: 5.18 % ID/g)

* * *

- Test system: Muscle tissue
- TEST_DETAILS: Biodistribution in muscle of C57BL/6 mouse bearing mouse B16-F0 cells at 0.74 to 0.92 MBq, iv after 1 hr
- Format: ADME, organism-based
- DETAILS: in vivo
METRIC_NAME: Drug uptake (% ID/g)

Example cases with answers are listed next.
| MOLECULE_SMILES | READOUT_NUMBER |
| --- | --- |
| CCN(CC)CCNC(=O)c1ccc2cncc([125I])c2n1.Cl.Cl | 0.86 |
| CCN(CC)CCNC(=O)c1ccc2cc([125I])ccc2n1.Cl.Cl | 1.79 |
| CCN(CC)CCNC(=O)c1cc2cc([125I])ccc2o1.Cl | 0.96 |

(1) CCN(CC)CCNC(=O)c1cc2c([125I])cccc2s1.Cl
(2) CCN(CC)CCNC(=O)c1ccc([125I])nc1.Cl.Cl
(3) CCN(CC)CCNC(=O)c1cn2cc([125I])ccc2n1.Cl.Cl
Incoming: Ordering criterion: Drug uptake; begin with the maximum. Quick reminder: the answer is the labels in the order asked.
Outgoing: 2, 1, 3

* * *

- TEST_DETAILS: Ratio of drug level in tumor to liver of C57BL/6 mouse bearing mouse B16-F0 cells at 0.74 to 0.92 MBq, iv after 1 hr
- Assay type: ADME, organism-based
- DETAILS: in vivo
METRIC_NAME: Ratio

| MOLECULE_SMILES | Ratio |
| --- | --- |
| CCN(CC)CCNC(=O)c1cc2c([125I])cccc2cn1.Cl.Cl | 1.88 |
| CCN(CC)CCNC(=O)c1cc2cc([125I])ccc2[nH]1.Cl | 0.7 |
| CCN(CC)CCNC(=O)c1ccc2cncc([125I])c2n1.Cl.Cl | 5.92 |
| CCN(CC)CCNC(=O)c1c[nH]c2ccc([125I])cc2c1=O.Cl.Cl | 0.91 |
| CCN(CC)CCNC(=O)c1cc2c([125I])cccc2s1.Cl | 5.64 |

(I) CCN(CC)CCNC(=O)c1ccc2cc([125I])ccc2c1.Cl
(II) CCN(CC)CCNC(=O)c1ccc([125I])nc1.Cl.Cl
Incoming: Sorting ascending by Ratio, which comes first: I or II ? Write down the label attached to your selection.
Outgoing: I
(I: 1.37, II: 3.01)
